Measured IC50 of individual entries
- Tested on: U-251
- experiment_notes: Cytotoxicity MTS assay, 72 h
- Assay type: cell-based, human
- protocol_conditions: Homo sapiens; U-251; 72 h; MTS
Supply the numeric figure in µM, leaving out any unit text.

Please review the entries below; each comes with its answer.
Nc1cccnc1C=NNC(=S)N1CCN(c2ccccc2)CC1; 0.403
Nc1cccnc1C=NNC(=S)N1CCN(c2ccc(C(F)(F)F)cc2[N+](=O)[O-])CC1; 0.381

Input line: Reported IC50 for COc1ccc(N2CCN(C(=S)NN=Cc3ncccc3N)CC2)cc1 : what is it?
Output line: 0.649

Input line: Thanks! And Nc1cccnc1C=NNC(=S)N1CCN(c2cnccn2)CC1 ?
Output line: 0.743

Input line: Thanks! And CC(C)(C)OC(=O)N1CCN(C(=S)NN=Cc2ncccc2N)CC1 ?
Output line: 3.08

----------
- Tested on: U-251
- experiment_notes: Cytotoxicity MTS assay, 72 h
- Assay type: cell-based, human
- protocol_conditions: Homo sapiens; U-251; 72 h; MTS
Could you please mark Condition met for values of IC50 below 1000 nM and Condition not met for values at or above it?

Nc1cccnc1C=NNC(=S)N1CCN(c2ccc(Cl)cc2)CC1; Condition met
Nc1cccnc1C=NNC(=S)N1CCN(c2ncc(C(F)(F)F)cc2Cl)CC1; Condition met
N#Cc1ccc(N2CCN(C(=S)NN=Cc3ncccc3N)CC2)cc1; Condition not met
Nc1cccnc1C=NNC(=S)N1CCN(c2ncccn2)CC1; Condition not met

Continue with the molecule presented below.
Input line: In the record for Nc1cccnc1C=NNC(=S)N1CCN(c2ccccn2)CC1 , is IC50 less than 1000 nM?
Output line: Condition not met

----------
- Tested on: Hs683
- experiment_notes: Cytotoxicity MTS assay, 72 h
- Assay type: cell-based, human
- protocol_conditions: Homo sapiens, Hs 683; Hs683; 72 h; MTS
quantity: pIC50
By convention, pIC50 is the negative base-10 log of a molar concentration.

Please review the entries below; each comes with its answer.
Nc1cccnc1C=NNC(=S)N1CCN(c2ccccn2)CC1; 5.93
CC(C)(C)OC(=O)N1CCN(C(=S)NN=Cc2ncccc2N)CC1; 5.33
NC(=S)NN=Cc1ncccc1N; 5.75
Nc1cccnc1C=NNC(=S)N1CCN(c2ccccc2)CC1; 5.84
Nc1cccnc1C=NNC(=S)N1CCN(c2ccc(Cl)cc2)CC1; 5.83

Attention now turns to another entry.
Input line: What value of pIC50 on Hs683 does Nc1cccnc1C=NNC(=S)N1CCN(c2cnccn2)CC1 have?
Output line: 5.59

----------
quantity: melting point

Please review the entries below; each comes with its answer.
COc1ccc(N2CCN(C(=S)NN=Cc3ncccc3N)CC2)cc1; 195 to 196 °C
N#Cc1ccc(N2CCN(C(=S)NN=Cc3ncccc3N)CC2)cc1; 209 to 210 °C
Nc1cccnc1C=NNC(=S)N1CCN(c2ccccn2)CC1; 210 to 211 °C
Nc1cccnc1C=NNC(=S)N1CCN(c2ncccn2)CC1; 198 to 199 °C
Nc1cccnc1C=NNC(=S)N1CCN(c2ccc(C(F)(F)F)cc2[N+](=O)[O-])CC1; 179 to 180 °C
Nc1cccnc1C=NNC(=S)N1CCN(c2ccccc2)CC1; 189 to 190 °C

Input line: Reported melting point for Nc1cccnc1C=NNC(=S)N1CCN(c2ccc(Cl)cc2)CC1 : what is it?
Output line: 206 to 207 °C

Input line: Thanks! And CC(C)(C)OC(=O)N1CCN(C(=S)NN=Cc2ncccc2N)CC1 ?
Output line: 193 to 194 °C

Input line: Thanks! And Nc1cccnc1C=NNC(=S)N1CCN(c2ncc(C(F)(F)F)cc2Cl)CC1 ?
Output line: 199 to 200 °C

Input line: Thanks! And Nc1cccnc1C=NNC(=S)N1CCN(c2cnccn2)CC1 ?
Output line: 217 to 218 °C

Input line: Thanks! And Nc1cccnc1C=NNC(=S)N1CCN(c2ccc(F)cc2)CC1 ?
Output line: 210 to 211 °C

The reported numbers originate from paper PMC5898707.
